assay: Ratio of drug level in monkey blood to plasma; assay type: ADME, cell-free, Macaca mulatta; conditions: rhesus monkey, whole blood
observedProperty: blood plasma ratio

Give the measured blood plasma ratio for `CCNC1=N[C@@H]2[C@@H](O)[C@H](O)[C@@H](C(F)F)O[C@@H]2S1` 0.9 to 1.1

* * *

assay: Cmax in telemetered dog at 380 mg/kg, po; assay type: ADME, organism-based, Canis lupus familiaris; parameters: dose 380 mg/kg, route oral; conditions: in vivo
observedProperty: Cmax (µM)
Numbers only, in µM.

Identify measured Cmax corresponding to `CCNC1=N[C@@H]2[C@@H](O)[C@H](O)[C@@H](C(F)F)O[C@@H]2S1` 660

* * *

target: IKs (KCNQ1) (Homo sapiens, UniProt P51787); test: Inhibition of IKs (unknown origin) at 30 uM
Sequence (P51787 whole entry): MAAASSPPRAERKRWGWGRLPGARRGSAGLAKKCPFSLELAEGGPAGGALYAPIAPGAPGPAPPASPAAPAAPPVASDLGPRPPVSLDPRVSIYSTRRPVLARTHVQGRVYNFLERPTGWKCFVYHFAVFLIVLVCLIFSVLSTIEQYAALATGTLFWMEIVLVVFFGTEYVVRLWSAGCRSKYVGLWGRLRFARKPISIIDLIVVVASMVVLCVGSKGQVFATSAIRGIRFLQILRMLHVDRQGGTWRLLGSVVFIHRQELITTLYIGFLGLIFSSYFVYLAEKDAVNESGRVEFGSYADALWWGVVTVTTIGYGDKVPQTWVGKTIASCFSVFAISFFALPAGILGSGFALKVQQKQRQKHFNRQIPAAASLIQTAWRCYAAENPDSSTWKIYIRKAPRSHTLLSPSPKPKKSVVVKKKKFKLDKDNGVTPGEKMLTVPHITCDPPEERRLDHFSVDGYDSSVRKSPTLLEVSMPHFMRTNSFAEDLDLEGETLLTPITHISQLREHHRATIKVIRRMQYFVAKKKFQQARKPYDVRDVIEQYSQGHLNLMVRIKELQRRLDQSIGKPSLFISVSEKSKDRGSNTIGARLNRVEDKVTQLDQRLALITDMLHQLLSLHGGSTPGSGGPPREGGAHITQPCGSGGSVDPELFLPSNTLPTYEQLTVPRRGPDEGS
observedProperty: inhibition at 30 µM

Give the value of inhibition at 30 µM reported for the following: `CCNC1=N[C@@H]2[C@@H](O)[C@H](O)[C@@H](C(F)F)O[C@@H]2S1` < 50%

* * *

I'd be grateful if you could share measured clearance for these entries.
assay: Clearance in Wistar Han rat at 2 mg/kg, iv; assay type: ADME, organism-based; conditions: in vivo
Numbers only, in L/h/kg.

Return reported clearance. Input molecule: `C=CCN(C)C1=N[C@@H]2[C@@H](O)[C@H](O)[C@@H](CO)O[C@@H]2S1` 2.75

Give recorded clearance. `CCNC1=N[C@@H]2[C@@H](O)[C@H](O)[C@@H](C(F)F)O[C@@H]2S1` 2.2

Input `CCCNC1=N[C@@H]2[C@@H](F)[C@H](O)[C@@H](CO)O[C@@H]2S1` , output reported clearance. 2.89

Give the measured clearance for `CNC1=N[C@@H]2C[C@H](O)[C@@H](CO)O[C@@H]2S1` 2.34

For `CNC1=N[C@@H]2[C@H](F)[C@H](O)[C@@H](C(F)F)O[C@@H]2S1` , write its clearance. 0.684

Provide clearance value for the following molecule: `CCNC1=N[C@@H]2[C@@H](F)[C@H](O)[C@@H](CO)O[C@@H]2S1` 1.91

Check the records and state clearance for `CCNC1=N[C@@H]2[C@@H](O)[C@H](O)[C@@H](CF)O[C@@H]2S1` 2.24

Supply clearance value. Item: `OC[C@H]1O[C@@H]2SC(N3CCC3)=N[C@@H]2[C@@H](O)[C@@H]1O` 3.22

We now examine a further molecule.
Return value of clearance for input `CNC1=N[C@@H]2[C@@H](O)[C@H](O)[C@@H](C(F)F)O[C@@H]2S1` , no commentary. 1.63

* * *

test: Tmax in rat brain at 3 mg/kg, po measured upto 24 hrs; format: ADME, organism-based
observedProperty: Tmax
Provide a numeric answer, followed by its unit.

Fill in Tmax for record `CNC1=N[C@@H]2[C@H](F)[C@H](O)[C@@H](CO)O[C@@H]2S1` 8 h

* * *

experiment: Oral bioavailability in Beagle dog at 3 mg/kg; format: ADME, organism-based, Canis lupus familiaris; details: in vivo
observedProperty: bioavailability

Report bioavailability for `CCNC1=N[C@@H]2[C@@H](O)[C@H](O)[C@@H](C(F)F)O[C@@H]2S1` 90%

* * *

experiment: Volume of distribution at steady state in Wistar Han rat at 2 mg/kg, iv or 3 mg/kg, po; format: ADME, organism-based; conditions: in vivo, read-out: Vdss
observedProperty: Vd (L/kg)
Answers are plain numbers, in L/kg.

Previously resolved entries follow.
For the molecule `CNC1=N[C@@H]2C[C@H](O)[C@@H](C(F)F)O[C@@H]2S1` , give its measured Vd value. 2.23

Provide only the value of recorded Vd for `CCNC1=N[C@@H]2[C@@H](O)[C@H](O)[C@@H](CF)O[C@@H]2S1` 3.8

Please report Vd for the following molecule: `CCCNC1=N[C@@H]2[C@@H](O)[C@H](O)[C@@H](C(F)F)O[C@@H]2S1` 5.99

Required: Vd, one value per molecule below.
1. C=CCN(C)C1=N[C@@H]2[C@@H](O)[C@H](O)[C@@H](CO)O[C@@H]2S1
2. CN(C)C1=N[C@@H]2[C@@H](O)[C@H](O)[C@@H](C(F)F)O[C@@H]2S1
3. CCCNC1=N[C@@H]2[C@@H](F)[C@H](O)[C@@H](CO)O[C@@H]2S1
4. CN(C)C1=N[C@@H]2C[C@H](O)[C@@H](CO)O[C@@H]2S1
5. OC[C@H]1O[C@@H]2SC(NCCF)=N[C@@H]2[C@@H](O)[C@@H]1O
6. CNC1=N[C@@H]2[C@@H](O)[C@H](O)[C@@H](C(F)F)O[C@@H]2S1
7. CNC1=N[C@@H]2[C@H](F)[C@H](O)[C@@H](C(F)F)O[C@@H]2S1

16.1
10.3
1.92
2.49
1.33
1.72
2.96

Provide the reported Vd of each entry below, same order.
1. CN(C)C1=N[C@@H]2[C@@H](O)[C@H](O)[C@@H](CF)O[C@@H]2S1
2. CNC1=N[C@@H]2[C@@H](O)[C@H](O)[C@@H](CF)O[C@@H]2S1

[10.5, 1.79]

* * *

target: Sodium channel protein type 5 subunit alpha (Homo sapiens); assay: Inhibition of Nav1.5 (unknown origin)
Sequence (Q14524 whole entry): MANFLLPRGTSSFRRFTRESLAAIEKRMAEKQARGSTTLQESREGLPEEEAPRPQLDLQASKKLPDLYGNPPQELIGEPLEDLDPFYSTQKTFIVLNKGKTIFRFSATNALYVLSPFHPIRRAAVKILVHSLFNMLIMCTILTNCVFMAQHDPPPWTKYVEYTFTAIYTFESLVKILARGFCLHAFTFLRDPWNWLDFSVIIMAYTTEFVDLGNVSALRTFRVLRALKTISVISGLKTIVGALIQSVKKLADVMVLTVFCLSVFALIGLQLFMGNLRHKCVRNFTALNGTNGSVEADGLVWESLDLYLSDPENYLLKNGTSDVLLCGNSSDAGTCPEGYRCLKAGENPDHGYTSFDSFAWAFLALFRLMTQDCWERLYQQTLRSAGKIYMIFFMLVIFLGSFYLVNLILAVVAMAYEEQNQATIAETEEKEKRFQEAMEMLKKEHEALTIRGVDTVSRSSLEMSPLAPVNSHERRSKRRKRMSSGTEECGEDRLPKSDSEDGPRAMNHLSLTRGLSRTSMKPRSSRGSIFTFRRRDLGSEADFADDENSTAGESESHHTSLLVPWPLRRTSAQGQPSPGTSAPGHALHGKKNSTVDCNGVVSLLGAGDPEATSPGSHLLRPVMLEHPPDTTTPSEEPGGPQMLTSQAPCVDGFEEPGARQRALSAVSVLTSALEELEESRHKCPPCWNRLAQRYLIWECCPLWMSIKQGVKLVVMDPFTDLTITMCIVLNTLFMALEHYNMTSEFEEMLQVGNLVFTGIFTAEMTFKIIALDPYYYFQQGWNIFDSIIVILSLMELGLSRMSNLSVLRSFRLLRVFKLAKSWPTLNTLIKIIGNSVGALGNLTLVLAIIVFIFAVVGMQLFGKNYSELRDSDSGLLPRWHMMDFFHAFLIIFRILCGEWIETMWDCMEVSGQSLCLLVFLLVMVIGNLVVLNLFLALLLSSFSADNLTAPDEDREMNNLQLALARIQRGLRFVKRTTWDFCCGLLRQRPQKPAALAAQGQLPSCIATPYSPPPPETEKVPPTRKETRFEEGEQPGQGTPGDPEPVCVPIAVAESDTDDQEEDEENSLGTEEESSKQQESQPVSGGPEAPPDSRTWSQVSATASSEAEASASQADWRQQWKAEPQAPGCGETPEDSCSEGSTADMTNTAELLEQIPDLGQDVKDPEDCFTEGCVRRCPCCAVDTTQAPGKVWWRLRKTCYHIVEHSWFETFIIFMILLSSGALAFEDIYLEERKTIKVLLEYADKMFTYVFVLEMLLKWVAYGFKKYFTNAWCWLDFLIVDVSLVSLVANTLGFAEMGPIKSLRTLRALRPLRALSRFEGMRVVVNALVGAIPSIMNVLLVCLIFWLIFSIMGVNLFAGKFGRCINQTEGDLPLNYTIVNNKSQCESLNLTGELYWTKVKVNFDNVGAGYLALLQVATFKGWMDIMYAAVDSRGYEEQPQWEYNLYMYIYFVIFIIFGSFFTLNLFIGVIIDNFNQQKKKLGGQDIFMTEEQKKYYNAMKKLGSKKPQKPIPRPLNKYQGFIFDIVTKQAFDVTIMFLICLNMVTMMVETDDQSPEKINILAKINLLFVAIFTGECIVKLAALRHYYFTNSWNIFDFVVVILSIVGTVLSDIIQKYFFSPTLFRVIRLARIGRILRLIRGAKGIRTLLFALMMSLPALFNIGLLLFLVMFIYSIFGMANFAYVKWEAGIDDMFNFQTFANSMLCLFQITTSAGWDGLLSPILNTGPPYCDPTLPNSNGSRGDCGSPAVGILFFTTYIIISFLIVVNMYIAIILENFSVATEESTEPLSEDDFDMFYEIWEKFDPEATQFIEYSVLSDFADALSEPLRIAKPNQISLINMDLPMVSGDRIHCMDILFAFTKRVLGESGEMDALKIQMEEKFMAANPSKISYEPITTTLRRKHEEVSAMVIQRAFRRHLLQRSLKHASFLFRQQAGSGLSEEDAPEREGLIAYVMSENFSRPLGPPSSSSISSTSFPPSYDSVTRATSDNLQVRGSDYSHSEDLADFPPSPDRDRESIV
observedProperty: IC50

Given `CCNC1=N[C@@H]2[C@@H](O)[C@H](OC)[C@@H](CO)O[C@@H]2S1` , report its IC50 on Sodium channel protein type 5 subunit alpha (Homo sapiens). > 30 µM

Hey, quick one: what's IC50 for each of these?
1. CCNC1=N[C@@H]2[C@@H](O)[C@H](O)[C@@H](C)O[C@@H]2S1
2. CCNC1=N[C@@H]2C[C@H](O)[C@@H](CO)O[C@@H]2S1
3. CCNC1=N[C@@H]2[C@@H](OC)[C@H](O)[C@@H](CO)O[C@@H]2S1
4. CCNC1=N[C@H]2[C@H](O[C@H](CO)C(F)[C@@H]2O)S1 (stereo partly specified)
5. CCN(C)C1=N[C@@H]2[C@@H](O)[C@H](O)[C@@H](CO)O[C@@H]2S1
6. CCNC1=N[C@@H]2[C@@H](O)[C@H](O)[C@@H](CF)O[C@@H]2S1

1. > 30 µM
2. > 30 µM
3. > 30 µM
4. > 30 µM
5. > 30 µM
6. > 30 µM

Provide IC50 for all items below, preserving their order.
1. CCNC1=N[C@@H]2[C@@H](O)[C@H](O)[C@@H](CO)O[C@@H]2S1
2. CCNC1=N[C@H]2[C@H](O[C@H](CO)C[C@@H]2O)S1
3. CCNC1=N[C@@H]2[C@@H](O)[C@H](O)[C@@H](COC)O[C@@H]2S1
4. CCNC1=N[C@@H]2[C@@H](F)[C@H](O)[C@@H](CO)O[C@@H]2S1

1. > 30 µM
2. > 30 µM
3. > 30 µM
4. > 30 µM

* * *

assay: Drug excretion in rat feces at 10 mg/kg, po; format: ADME, organism-based; settings: faeces, read-out: Drug excretion
observedProperty: dose excreted (%)
Give bare numbers, in %.

Provide only the value of recorded dose excreted for `[3H][C@@]1(O)[C@@H](C(F)F)O[C@@H]2SC(NCC)=N[C@@H]2[C@H]1O` 0.5

* * *

assay: Ratio of drug uptake in rat brain to plasma at 3 mg/kg, po measured after 24 hrs; format: ADME, organism-based; conditions: read-out: BPR
observedProperty: Kp at 24 h

Known results for compounds:
Read the entry `CNC1=N[C@@H]2[C@H](F)[C@H](O)[C@@H](CO)O[C@@H]2S1` and write its reported Kp at 24 h. ≥ 29.5

Dear colleague, please send me the reported Kp at 24 h for `CCNC1=N[C@@H]2[C@@H](O)[C@H](O)[C@@H](CO)O[C@@H]2S1` when you can. > 2.7

Quote Kp at 24 h reported for `CN(C)C1=N[C@@H]2[C@@H](O)[C@H](O)[C@@H](CF)O[C@@H]2S1` please. 1.53

I would be grateful if you could provide Kp at 24 h for each of the following entries.
1. CCNC1=N[C@@H]2[C@@H](O)[C@H](O)[C@@H](C(F)F)O[C@@H]2S1
2. CN(C)C1=N[C@@H]2[C@@H](O)[C@H](O)[C@@H](C(F)F)O[C@@H]2S1
3. CCNC1=N[C@@H]2[C@@H](O)[C@H](O)[C@@H](CF)O[C@@H]2S1
4. CNC1=N[C@@H]2[C@@H](O)[C@H](O)[C@@H](CF)O[C@@H]2S1

1: ≥ 20.5; 2: 3.03; 3: ≥ 18.7; 4: ≥ 7.9

* * *

test: Drug uptake in rat brain at 3 mg/kg, po measured after 8 hrs; format: ADME, organism-based; conditions: in vivo
Answer each item with its documented Drug uptake.
Numbers only, in nmol/g.

Record excerpt, results attached:
Dear colleague, please send me the reported Drug uptake for `CNC1=N[C@@H]2C[C@H](O)[C@@H](C(F)F)O[C@@H]2S1` when you can. 0.289

Query Drug uptake for `CCNC1=N[C@@H]2[C@@H](O)[C@H](O)[C@@H](CF)O[C@@H]2S1` 0.228

Fill in Drug uptake for record `CCCNC1=N[C@@H]2[C@@H](O)[C@H](O)[C@@H](C(F)F)O[C@@H]2S1` 0.193

Return Drug uptake for the following compound: `CCNC1=N[C@@H]2[C@@H](O)[C@H](O)[C@@H](CO)O[C@@H]2S1` 0.185

Provide only the value of recorded Drug uptake for `CNC1=N[C@@H]2[C@H](F)[C@H](O)[C@@H](CO)O[C@@H]2S1` 0.099

Assign Drug uptake to the following record: `CNC1=N[C@@H]2[C@@H](O)[C@H](O)[C@@H](CF)O[C@@H]2S1` 0.068

Parameters: items (list). Returns: Drug uptake for each item.
1. CNC1=N[C@@H]2[C@@H](O)[C@H](O)[C@@H](C(F)F)O[C@@H]2S1
2. CN(C)C1=N[C@@H]2[C@@H](O)[C@H](O)[C@@H](C(F)F)O[C@@H]2S1
3. CCNC1=N[C@@H]2[C@@H](O)[C@H](O)[C@@H](C(F)F)O[C@@H]2S1
4. CNC1=N[C@@H]2[C@H](F)[C@H](O)[C@@H](C(F)F)O[C@@H]2S1
5. CN(C)C1=N[C@@H]2[C@@H](O)[C@H](O)[C@@H](CF)O[C@@H]2S1

1. 0.133
2. 0.147
3. 0.219
4. 0.142
5. 0.222
